- System: HCT116 cells
- PROCEDURE_DETAILS: MTT cell toxicity assay
- Type: cell-based
- CONDITION_LABEL: Homo sapiens, HCT-116, 72 h incubation, read-out: MTT assay HCT116 GI50

MOLECULE	SYSTEM	UNITS_SYMBOL	GI50
COc1cc(-c2nnnn2C)ccc1Nc1cc2c(cn1)cc(-c1cnn(C)c1)n2C(=O)OC(C)C	HCT116 cells	nM	104
Cn1cc(C2=[N+](C(=O)OC(C)(C)C)c3cc(Nc4ccc(-c5nncn5C)cc4Cl)ncc3C2)cn1 [Comparator 1, reference compound]	HCT116 cells	nM	360
COc1cc(-c2cnnn2C)ccc1Nc1cc2c(cn1)cc(-c1cnn(C)c1)n2C(=O)OC(C)C	HCT116 cells	nM	59.4
Cn1cc(C2=[N+](C(=O)OC(C)(C)C)c3cc(Nc4ccc(-c5ccnn5C)cc4Cl)ncc3C2)cn1 [Comparator 3, reference compound]	HCT116 cells	nM	548
